Exercise: state measured pIC50 for each of the sequences provided.
# Study System: A*3301 (Homo sapiens, UniProt P04439, A270S/D185E/E176V/E277Q/E87N/F33T/G231S/H175R/I121M/I218V/I322F/K168Q/K210R/L300P/L318F/M331R/P217A/Q86R/Q94H/R138Q/T323A/T345S/T97I/V358M/Y195H)
# Protocol Description: biochemical
# Type: binding
No end group written: not given here.
Answers are plain numbers, as −log10 of the molar value.

Previously resolved entries follow.
HLFDYSWYK [Peptide 76.0165] :: 7.21
YGFRLGFLK [Peptide 1556.27] :: 6.08
KIKPPLPSVR [Peptide 9017.0234] :: 5.46

Provide pIC50 values for the following items, in order.
1. SSIVGWPAVR [Peptide 9017.0185]
2. QVLHLLKRK [Peptide 88.0365]
3. ATNCTNKQR [Peptide 1589.20]
4. KVCSGVDYR [Peptide 1589.35]
5. STWHWTGCNK [Peptide 1589.28]
6. LTALIKPKKR [Peptide 9017.0231]

1. 6.19
2. 5.73
3. 4.89
4. 5.24
5. 5.72
6. 5.06

Dear colleague, could you send me pIC50 for each of the items below? Thanks.
1. LTYISTSQR [Peptide 1589.19]
2. AAEGVGAASR [Peptide 9017.0187]
3. ILWKDIFHR [Peptide 9012.0201]
4. IVIKRRQQK [Peptide 9012.0206]
5. SFFSRTWCR [Peptide 1587.42]
6. TFWNPPTTAR [Peptide 1556.02]

[7.10, 5.29, 8.32, 5.04, 8.46, 7.40]
